Molecular target: T1, Extracellular domain (ECD) of the canine IL-4 receptor alpha-V5 epitope-AviTag-His Tag (canine)
T1 construct: monomeric form isolated by size exclusion; also called canine IL-4RA-V5-Avi-His; canine IL-4RA
T1 chain: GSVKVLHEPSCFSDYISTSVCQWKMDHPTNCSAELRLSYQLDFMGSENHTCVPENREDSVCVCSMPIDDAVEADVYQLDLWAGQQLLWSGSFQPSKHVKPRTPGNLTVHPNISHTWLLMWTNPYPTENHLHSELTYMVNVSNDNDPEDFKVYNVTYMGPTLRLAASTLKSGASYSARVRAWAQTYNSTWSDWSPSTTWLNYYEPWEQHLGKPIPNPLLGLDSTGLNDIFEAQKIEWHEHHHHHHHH
Experiment: SPR, Fab-SASA captured on BSA;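 also: biacore T200 SPR, Fab-SASA variants from E. coli conditioned medium captured on BSA-coated CM5 chip, canine IL-4RA injected 120 s then 420 s dissociation, 1:1 model fit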
pKd: −log10 of the molar value.
Measured pKd of individual entries

binder	pKd
TB640_005 Fab-SASA VL-S57H (Fab, V domains shown, not shown: SASA tag then His-tag) VH: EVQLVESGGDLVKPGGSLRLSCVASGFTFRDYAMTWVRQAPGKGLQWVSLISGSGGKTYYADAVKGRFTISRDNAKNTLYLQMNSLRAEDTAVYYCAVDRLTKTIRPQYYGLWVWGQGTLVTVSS VL: DIVMTQTPLSLSVSPGETASISCRSSQSLLYSIGYNYLDWYLQKPGQSPQGLIYLGHKRASGVPDRFSGSGSGTDFTLRISRVEANDTGVYYCMQGLQSPLTFGQGTKLEIKR	8.09
TB640_005 Fab-SASA VH-S52N (Fab, V domains shown, not shown: SASA tag then His-tag) VH: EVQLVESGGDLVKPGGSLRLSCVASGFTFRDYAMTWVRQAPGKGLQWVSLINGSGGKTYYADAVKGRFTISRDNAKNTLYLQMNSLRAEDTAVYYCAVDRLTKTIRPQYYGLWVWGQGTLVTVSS VL: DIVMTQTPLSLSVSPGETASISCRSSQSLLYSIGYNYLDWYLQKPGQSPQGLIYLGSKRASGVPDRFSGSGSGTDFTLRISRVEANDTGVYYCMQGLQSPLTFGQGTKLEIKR	8.74
TB640_005 Fab-SASA VL-T102N (Fab, V domains shown, not shown: SASA tag then His-tag) VH: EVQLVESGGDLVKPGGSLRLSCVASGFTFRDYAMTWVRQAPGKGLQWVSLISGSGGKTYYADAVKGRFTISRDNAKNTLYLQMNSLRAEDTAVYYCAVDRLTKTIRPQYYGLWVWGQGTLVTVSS VL: DIVMTQTPLSLSVSPGETASISCRSSQSLLYSIGYNYLDWYLQKPGQSPQGLIYLGSKRASGVPDRFSGSGSGTDFTLRISRVEANDTGVYYCMQGLQSPLNFGQGTKLEIKR	8.17
TB640_005 Fab-SASA VH-V114K (Fab, V domains shown, not shown: SASA tag then His-tag) VH: EVQLVESGGDLVKPGGSLRLSCVASGFTFRDYAMTWVRQAPGKGLQWVSLISGSGGKTYYADAVKGRFTISRDNAKNTLYLQMNSLRAEDTAVYYCAVDRLTKTIRPQYYGLWKWGQGTLVTVSS VL: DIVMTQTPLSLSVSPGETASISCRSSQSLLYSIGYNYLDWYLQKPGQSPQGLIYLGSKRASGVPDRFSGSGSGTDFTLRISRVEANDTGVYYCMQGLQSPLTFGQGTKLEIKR	8.22
TB640_005 Fab-SASA VH-L50F (Fab, V domains shown, not shown: SASA tag then His-tag) VH: EVQLVESGGDLVKPGGSLRLSCVASGFTFRDYAMTWVRQAPGKGLQWVSFISGSGGKTYYADAVKGRFTISRDNAKNTLYLQMNSLRAEDTAVYYCAVDRLTKTIRPQYYGLWVWGQGTLVTVSS VL: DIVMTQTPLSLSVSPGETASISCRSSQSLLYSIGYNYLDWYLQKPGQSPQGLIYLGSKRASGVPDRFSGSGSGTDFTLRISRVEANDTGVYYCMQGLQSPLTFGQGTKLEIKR	7.82
